Values from ChEMBL document CHEMBL1139492

# System: Rattus norvegicus
# Test Description: Effect of the 25 mg/kg compound on 3-alpha,5alpha-THPROG concentration in rat cerebral cortex after 30 min of intraperitoneal administration
# Format: functional, organism-based
# Design: dose 25 mg/kg
Endpoint Name: Concentration (ng/g)
Note: unit ng/g is implicit; provide only the numeric part.

Entry "CCCCN(C)C(=O)Cc1c(-c2ccc(Cl)cc2)nc2c(Cl)cc(Cl)cn12" : reported Concentration = ? 7.4

And what about the compound "CCCCN(C)C(=O)Cc1c(-c2ccccc2)nc2c(Cl)cc(Cl)cn12" ? 9.2

Now the compound "O=C(Cc1c(-c2ccc(Cl)cc2)nc2c(Cl)cc(Cl)cn12)N1CCCCC1" 7.3

Another compound to check: "CN(C(=O)Cc1c(-c2ccc(Cl)cc2)nc2c(Cl)cc(Cl)cn12)c1ccccc1" 7.4

Same lookup for "CCCCN(CCCC)C(=O)Cc1c(-c2ccc(Cl)cc2)nc2c(Cl)cccn12" , please. 8.8

* * *

# Assay System: Translocator protein (Rattus norvegicus)
# Test Description: Inhibitory concentration against peripheral benzodiazepine receptor of rat cerebral cortex
# Assay type: tissue-based
Property: IC50; scope: individual compounds

Take a look at these entries with their results.
Compound | IC50
CCCN(CCC)C(=O)C(C)c1c(-c2ccc(Cl)cc2)nc2c(Cl)cc(Cl)cn12 (centres undefined) | 1200 nM
CCCCNC(=O)Cc1c(-c2ccc(Cl)cc2)nc2c(Cl)cc(Cl)cn12 | 390 nM
CC(C(=O)N(C)C1CCCCC1)c1c(-c2ccc(Cl)cc2)nc2c(Cl)cc(Cl)cn12 (centres undefined) | 5150 nM
O=C(Cc1c(-c2ccc(Cl)cc2)nc2c(Cl)cc(Cl)cn12)NCc1ccccc1 | 169 nM
CCCCN(C)C(=O)Cc1c(-c2ccc(Cl)cc2)nc2c(Cl)cc(Cl)cn12 | 0.45 nM

Dear colleague, I am looking for the recorded IC50 of the following compound: CCOC(=O)C1CCCN(C(=O)Cc2c(-c3ccc(Cl)cc3)nc3ccc(Cl)cn23)C1 (centres undefined) 35.2 nM

"O=C(Cc1c(-c2ccccc2)nc2c(Cl)cc(Cl)cn12)N1CCCCC1" , same question. 157 nM

Please do the same for "O=C(Cc1c(-c2ccccc2)nc2c(Cl)cc(Cl)cn12)NC1CCCCC1" as well. 1320 nM

// next record "CCCN(Cc1ccc([N+](=O)[O-])cc1)C(=O)Cc1c(-c2ccc(Cl)cc2)nc2c(Cl)cc(Cl)cn12" 27.2 nM

* * *

# Assay System: Translocator protein (Rattus norvegicus, UniProt P16257)
# Sequence (P16257 whole entry, looked up): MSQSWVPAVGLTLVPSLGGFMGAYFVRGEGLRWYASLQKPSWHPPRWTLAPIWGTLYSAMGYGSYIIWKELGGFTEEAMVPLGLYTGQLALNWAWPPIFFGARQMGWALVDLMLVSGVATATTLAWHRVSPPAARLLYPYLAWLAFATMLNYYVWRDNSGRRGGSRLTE
# Test Description: Displacement of [3H]PK11195 from peripheral benzodiazepine receptor of rat cerebral cortex
# Assay type: tissue-based
pKi: −log10 of the molar value.
Everything with pKi lower than 7 is no; everything else, including exactly 7, is yes.

Examples from the recorded data:
Molecule | Assigned Label
CC(C(=O)N(C)Cc1ccccc1)c1c(-c2ccc(Cl)cc2)nc2c(Cl)cc(Cl)cn12 (stereo not given) | no
C=CCN(CC=C)C(=O)Cc1c(-c2ccc(Cl)cc2)nc2c(Cl)cc(Cl)cn12 | yes
O=C(Cc1c(-c2ccccc2)nc2c(Cl)cc(Cl)cn12)N1CCCC1 | no

Let us examine a further case.
For this molecule, is measured pKi 7 or higher? "CCCCN(C)C(=O)Cc1c(-c2ccc(Cl)cc2)nc2c(Cl)cc(Cl)cn12" yes

* * *

Examples of molecules with documented Selectivity index follow.
# Assay System: Benzodiazepine receptors; peripheral & central (Rattus norvegicus) (UniProt O09028+P15431+P18506+P18508+P19969+P20236+P23574+P23576+P28471+P28473+P30191+P62813+P63079+P63138+Q91ZM7+Q9ES14+P16257)
# Test Description: Ratio of inhibition for peripheral benzodiazepine receptor of rat ovary and central benzodiazepine GABA-A receptor
# Assay type: tissue-based
# Design: scale not given here
# Experimental Parameters: Female gonad
Reply briefly: the number, and no unit.

I would be grateful if you could share the reported Selectivity index for "CN(C(=O)Cc1c(-c2ccc(Cl)cc2)nc2c(Cl)cc(Cl)cn12)c1ccccc1" . 3.77

Entry to check: "CCCCN(CCCC)C(=O)Cc1c(-c2ccc(Cl)cc2)nc2c(Cl)cccn12" 7.65

"CC(C)(C)N(Cc1ccccc1)C(=O)Cc1c(-c2ccc(Cl)cc2)nc2c(Cl)cc(Cl)cn12" , same question. -0.26

# repeat for "CCCCN(C(=O)Cc1c(-c2ccc(Cl)cc2)nc2c(Cl)cc(Cl)cn12)c1ccccc1" 3.32

Also "O=C(Cc1c(-c2ccccc2)nc2c(Cl)cc(Cl)cn12)N1CCCC1" ? 0.029

* * *

# Assay System: Translocator protein (Rattus norvegicus)
# Test Description: Inhibitory concentration against peripheral benzodiazepine receptor of rat cerebral cortex
# Format: tissue-based
Listing of entries alongside the reported pIC50.
Keep in mind that pIC50 stands for -log10 of concentration in molar terms.

Worked examples follow.
Compound | pIC50
CN(CCc1ccccn1)C(=O)Cc1c(-c2ccccc2)nc2c(Cl)cc(Cl)cn12 | 5.66
CC(C)(C)N(Cc1ccccc1)C(=O)Cc1c(-c2ccc(Cl)cc2)nc2c(Cl)cc(Cl)cn12 | 5.46

Bench note: what pIC50 did "O=C(Cc1c(-c2ccc(Cl)cc2)nc2c(Cl)cc(Cl)cn12)N1CCc2ccccc2C1" show? 8.31

Request: "O=C(Cc1c(-c2ccc(Cl)cc2)nc2c(Cl)cc(Cl)cn12)N1CCCC1" 6.67

Entry "O=C(Cc1c(-c2ccccc2)nc2c(Cl)cc(Cl)cn12)N1CCCC1" please 5.91

Moving on to the next compound: "CN(C(=O)Cc1c(-c2ccc(Cl)cc2)nc2c(Cl)cc(Cl)cn12)c1ccccc1" 9.48

Now try "CCCCN(CCCC)C(=O)Cc1c(-c2ccc(Cl)cc2)nc2c(Cl)cc(Cl)cn12" . 8.28

* * *

# Assay System: Translocator protein (Rattus norvegicus)
# Test Description: Inhibitory concentration against peripheral benzodiazepine receptor of rat ovary
# Format: tissue-based, Female gonad
pIC50 for assorted molecules
Note on pIC50: it is the negative log10 of concentration, concentration in mol/L.

Molecule | pIC50
CCCCN(C(=O)Cc1c(-c2ccc(Cl)cc2)nc2ccc(Cl)cn12)c1ccccc1 | 7.94
CC(C(=O)N(C)C1CCCCC1)c1c(-c2ccc(Cl)cc2)nc2c(Cl)cc(Cl)cn12 (centres undefined) | 5.51
O=C(Cc1c(-c2ccccc2)nc2c(Cl)cc(Cl)cn12)N1CCCCC1 | 5.84
CCCCN(C)C(=O)Cc1c(-c2ccccc2)nc2c(Cl)cc(Cl)cn12 | 8.64
O=C(Cc1c(-c2ccc(Cl)cc2)nc2c(Cl)cc(Cl)cn12)N1CCc2ccccc2C1 | 7.45

What does the data say about its pIC50? Entry: "CCCCN(Cc1ccccc1)C(=O)Cc1c(-c2ccccc2)nc2c(Cl)cc(Cl)cn12" 7.05

Okay, and "O=C(Cc1c(-c2ccccc2)nc2c(Cl)cc(Cl)cn12)N1CCc2ccccc2C1" ? 6.64

Same read-out for "O=C(Cc1c(-c2ccc(Cl)cc2)nc2c(Cl)cc(Cl)cn12)N1CCCC1" ? 6.07

Next molecule: "CCCCNC(=O)Cc1c(-c2ccc(Cl)cc2)nc2c(Cl)cc(Cl)cn12" 6.54

How about this molecule: "CC(C)(C)N(Cc1ccccc1)C(=O)Cc1c(-c2ccc(Cl)cc2)nc2c(Cl)cc(Cl)cn12" 4.74

* * *

# Assay System: Translocator protein (Rattus norvegicus)
# Test Description: Inhibitory concentration against peripheral benzodiazepine receptor of rat cerebral cortex
# Assay type: tissue-based
Endpoint Name: pIC50
# pIC50: negative log10 of molar concentration; output just the value

As a guide, the following entries are already answered.
Compound | Endpoint Name | Experimental Result
CN(CCc1ccccn1)C(=O)Cc1c(-c2ccc(Cl)cc2)nc2c(Cl)cc(Cl)cn12 | pIC50 | 6.05
C=CCN(CC=C)C(=O)Cc1c(-c2ccc(Cl)cc2)nc2c(Cl)cc(Cl)cn12 | pIC50 | 8.09
O=C(Cc1c(-c2ccc(Cl)cc2)nc2c(Cl)cc(Cl)cn12)N1CCN(Cc2ccccc2)CC1 | pIC50 | 4.68
CCOC(=O)C1CCCN(C(=O)Cc2c(-c3ccc(Cl)cc3)nc3c(Cl)cc(Cl)cn23)C1 (centres undefined) | pIC50 | 6.84
CC(C(=O)N(C)Cc1ccccc1)c1c(-c2ccc(Cl)cc2)nc2c(Cl)cc(Cl)cn12 (centres undefined) | pIC50 | 5.00
CCCCCCN(CCCCCC)C(=O)Cc1c(-c2ccc(Cl)cc2)nc2c(Cl)cc(Cl)cn12 | pIC50 | 6.42

Any idea what its pIC50 is? The compound is "O=C(Cc1c(-c2ccc(Cl)cc2)nc2c(Cl)cc(Cl)cn12)N1CCCCC1" 8.30

Please do the same for "CCCCN(Cc1ccccc1)C(=O)Cc1c(-c2ccccc2)nc2c(Cl)cc(Cl)cn12" as well. 7.62

Record: "CCCCN(CCCC)C(=O)Cc1c(-c2ccc(Cl)cc2)nc2c(Cl)cccn12" 8.10
